- Assay type: cell-based, human
- condition_summary: human, Cell viability (%)
- Experimental: For the evaluation of peptides’ cytotoxicity, the human immortalized keratinocytes (HaCaT cells), purchased from AddexBio (San Diego, CA, USA), and BEAS-2B were used. […] The purple formazan crystals were dissolved using acidified 2-propanol and a microplate reader (Infinite M200; Tecan, Salzburg, Austria) was used to measure the absorbance of each well at 570 nm. […]
Bridge positions count the residues as written; N and C are the ends. Square brackets hold non-standard residues; d marks the D form. Peptide text beside a SMILES is read from it. * marks the point of attachment. Propanoyl(3-guanidino) = N=C(N)NCCC(=O)*
measured_quantity: viability at 2 h, 12.5 µM

Entry CC[C@H](C)[C@H](NC(=O)[C@H](CCCNC(=N)N)NC(=O)[C@H]1CCC(=O)NCCCC[C@H](NC(=O)[C@H](Cc2ccccc2)NC(=O)[C@H](Cc2c[nH]c3ccccc23)NC(=O)[C@@H]2CCCN2C(=O)[C@@H](NC(=O)[C@H](Cc2ccccc2)NC(=O)CCNC(=N)N)C(C)C)C(=O)N[C@@H](CCCCN)C(=O)N[C@@H](Cc2ccccc2)C(=O)N[C@H](CC(C)C)C(=O)N1)C(=O)N[C@@H](CC(C)C)C(N)=O [Peptide 4, guanidino-βAla-FVPWF[KKFle]RIL] ({Propanoyl(3-guanidino)}-FVPWFKKF[dL][dE]RIL-NH2; lactam 6-10) ; viability at 2 h, 12.5 µM = 100%
